Test system: 186277-243-T-J2-PDC spheroids with HUVEC/MSC, viability;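 note: compound exposure lasted seven days before readout; 100% = DMSO vehicle control wells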
procedure.summary: Anticancer human tumor 186277-243-T-J2-PDC patient-derived colon adenocarcinoma cell line growth inhibition [CLK]
protocol.conditions: second compound 10 µM; first compound 0.00949 µM; hits give low values
measured.metric: viability, T/C (%)
Write down the numeric answer in % and omit the unit.

Sample answers from the record:
Entry CC(C)CC(NC(=O)C(Cc1ccccc1)NC(=O)c1cnccn1)B(O)O (stereo not drawn) + CNC(=O)c1ccc(Nc2nc(OC3CCCC3)c3c(-c4ccc5nc(C)oc5c4)c[nH]c3n2)c(OC)c1 — recorded viability, T/C = 1.47

Recorded viability, T/C (molecule NC(=O)C(=Cn1cnc(-c2cc(C(F)(F)F)cc(C(F)(F)F)c2)n1)c1cncnc1 + CN1CCN(c2cc(C(=O)Nc3cc4cc(-c5cnn(C)c5)ccc4cn3)ccn2)CC1 ): 1.29

Then this molecule:
Briefly, viability, T/C measured for CC(C)CC(NC(=O)C(Cc1ccccc1)NC(=O)c1cnccn1)B(O)O (stereo not drawn) + CN1CCN(c2cc(C(=O)Nc3cc4cc(-c5cnn(C)c5)ccc4cn3)ccn2)CC1 : 0.27

Source listed as PubChem BioAssay AID2060625.
